Hello, the source for this data is paper PMC6803667, in case you need it.

system under test: T1, second WW domain of human YAP2 (YAP-WW2) (human, UniProt P46937-2 228-271)
T1 construct: also called hYAP-WW2; not shown: GST, N-terminal, cleaved; His tag, N-terminal, cleaved
T1 sequence (P46937 228-271): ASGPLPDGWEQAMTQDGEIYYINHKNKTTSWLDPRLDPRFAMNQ
assay comment: other fluorescence titration
condition: both partners purified
readout label: Kd

[[record]]
binder = "MQYLNPPPYADH [Marburg Late domain peptide]"
readout_label = "Kd"
result = "17 µM"

[[record]]
binder = "ILPTAPPEYMEA [Ebola Late domain peptide]"
readout_label = "Kd"
result = "560 µM"

